Where do the numbers come from? From patent EP4786451A1.

// reported Hillslope for each item listed
target: Integrin αvβ6 Receptor (Homo sapiens, UniProt P06756+P18564); experiment: HTRF binding activity to integrin αvβ6 receptor (competition with LAP (TGF-beta 1)); details: fit parameter of the inhibition curve
Sequence (P06756 31-992 limits assumed): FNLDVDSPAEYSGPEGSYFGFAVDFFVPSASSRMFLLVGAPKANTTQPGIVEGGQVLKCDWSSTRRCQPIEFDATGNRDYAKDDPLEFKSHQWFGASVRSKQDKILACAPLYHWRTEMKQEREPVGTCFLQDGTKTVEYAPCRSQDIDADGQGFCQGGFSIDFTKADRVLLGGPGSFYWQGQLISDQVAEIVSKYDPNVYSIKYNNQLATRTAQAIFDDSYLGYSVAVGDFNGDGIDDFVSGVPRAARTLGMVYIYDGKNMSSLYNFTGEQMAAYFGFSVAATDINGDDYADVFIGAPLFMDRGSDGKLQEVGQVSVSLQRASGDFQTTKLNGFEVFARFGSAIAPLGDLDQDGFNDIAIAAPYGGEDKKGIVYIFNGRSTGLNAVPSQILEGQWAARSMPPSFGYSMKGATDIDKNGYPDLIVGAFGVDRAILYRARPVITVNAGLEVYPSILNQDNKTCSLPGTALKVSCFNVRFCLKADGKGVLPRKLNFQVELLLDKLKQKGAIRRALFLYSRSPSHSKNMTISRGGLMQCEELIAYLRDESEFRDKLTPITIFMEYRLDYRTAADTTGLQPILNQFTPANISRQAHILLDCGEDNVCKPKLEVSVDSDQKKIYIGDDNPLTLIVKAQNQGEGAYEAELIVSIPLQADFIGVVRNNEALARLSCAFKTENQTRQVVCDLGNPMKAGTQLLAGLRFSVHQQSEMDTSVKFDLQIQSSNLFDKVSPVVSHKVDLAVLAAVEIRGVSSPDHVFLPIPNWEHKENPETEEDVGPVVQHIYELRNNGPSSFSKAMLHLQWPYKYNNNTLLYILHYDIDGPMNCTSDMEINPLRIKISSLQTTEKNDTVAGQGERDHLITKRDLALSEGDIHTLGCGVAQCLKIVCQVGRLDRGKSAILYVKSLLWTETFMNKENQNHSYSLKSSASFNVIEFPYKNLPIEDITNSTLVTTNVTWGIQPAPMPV
Sequence (P18564 22-707 limits assumed): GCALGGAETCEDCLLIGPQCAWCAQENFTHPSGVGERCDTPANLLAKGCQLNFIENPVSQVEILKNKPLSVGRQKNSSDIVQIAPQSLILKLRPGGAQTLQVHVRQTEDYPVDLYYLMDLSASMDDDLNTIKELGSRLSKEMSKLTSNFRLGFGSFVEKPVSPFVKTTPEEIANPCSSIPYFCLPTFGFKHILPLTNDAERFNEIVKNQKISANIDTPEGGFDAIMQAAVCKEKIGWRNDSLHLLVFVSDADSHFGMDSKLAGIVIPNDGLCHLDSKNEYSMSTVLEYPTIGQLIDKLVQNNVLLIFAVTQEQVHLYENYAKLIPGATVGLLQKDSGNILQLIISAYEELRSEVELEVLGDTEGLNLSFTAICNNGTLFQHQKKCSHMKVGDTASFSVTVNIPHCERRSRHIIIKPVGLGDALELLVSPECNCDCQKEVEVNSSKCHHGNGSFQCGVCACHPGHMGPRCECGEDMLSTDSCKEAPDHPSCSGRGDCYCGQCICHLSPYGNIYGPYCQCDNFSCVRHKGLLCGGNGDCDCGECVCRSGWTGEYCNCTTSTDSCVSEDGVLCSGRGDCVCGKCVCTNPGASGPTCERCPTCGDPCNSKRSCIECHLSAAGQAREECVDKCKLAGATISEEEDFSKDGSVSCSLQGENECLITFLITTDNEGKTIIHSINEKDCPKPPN
// return just the number, without any unit appended

compound=COC(=O)C[C@H](NC(=O)CNC(=O)CCCN(C(=O)OC(C)(C)C)c1cc(C)ccn1)c1ccc(-c2ccc(OCCOCCOCCOCCOCCn3cc(CNC(=O)c4ccc5c(c4)C(=O)OC54c5ccc(O)cc5Oc5cc(O)ccc54)nn3)c3ccccc23)cc1 assay_target="Integrin αvβ6 Receptor (Homo sapiens, UniProt P06756+P18564)" readout_name=Hillslope recorded_result=2.5
compound=COCCN(CCCCc1ccc2c(n1)NCCC2)CC[C@H](Nc1ncnc2cc(OCCOCCOCCOCCOCCn3cc(CNC(=O)c4ccc5c(c4)C(=O)OC54c5ccc(O)cc5Oc5cc(O)ccc54)nn3)ccc12)C(=O)O assay_target="Integrin αvβ6 Receptor (Homo sapiens, UniProt P06756+P18564)" readout_name=Hillslope recorded_result=1.5
compound="CC(C)[C@H]1C(=O)N[C@@H](CCCNC(=N)N)C(=O)NCC(=O)N[C@@H](CC(=O)O)C(=O)N[C@H](Cc2ccccc2)C(=O)N1C [Cilengitide, reference compound]" assay_target="Integrin αvβ6 Receptor (Homo sapiens, UniProt P06756+P18564)" readout_name=Hillslope recorded_result=1.2

# input for lookup
Fill in: Hillslope of Cc1ccnc(NCCC2CCN(CC(=O)N[C@@H](CC(=O)O)c3ccc(-c4ccc(OCCOCCOCCOCCOCCn5cc(CNC(=O)c6ccc7c(c6)C(=O)OC76c7ccc(O)cc7Oc7cc(O)ccc76)nn5)c5ccccc45)cc3)C2=O)c1 (stereo partly shown) is ___
1.3

* * *

biological target: Integrin αvβ6 Receptor (Homo sapiens, UniProt P06756+P18564); assay: HTRF binding activity to integrin αvβ6 receptor (competition with LAP (TGF-beta 1)); settings: maximum of the inhibition curve, read-out: Max
Readout Name: Emax (%)
Answer format: numeric, % implied, no suffix.

Examples from the recorded data:
compound="Cc1ccnc(NCCC2CCN(CC(=O)N[C@@H](CC(=O)O)c3ccc(-c4ccc(OCCOCCOCCOCCOCCn5cc(CNC(=O)c6ccc7c(c6)C(=O)OC76c7ccc(O)cc7Oc7cc(O)ccc76)nn5)c5ccccc45)cc3)C2=O)c1 (stereo partly shown) [Compound 5-5FAM]" recorded_result=107
compound="COC(=O)C[C@H](NC(=O)CNC(=O)CCCN(C(=O)OC(C)(C)C)c1cc(C)ccn1)c1ccc(-c2ccc(OCCOCCOCCOCCOCCn3cc(CNC(=O)c4ccc5c(c4)C(=O)OC54c5ccc(O)cc5Oc5cc(O)ccc54)nn3)c3ccccc23)cc1 [Compound 1NG-5FAM]" recorded_result=100
compound="COCCN(CCCCc1ccc2c(n1)NCCC2)CC[C@H](Nc1ncnc2cc(OCCOCCOCCOCCOCCn3cc(CNC(=O)c4ccc5c(c4)C(=O)OC54c5ccc(O)cc5Oc5cc(O)ccc54)nn3)ccc12)C(=O)O [Compound 17-5FAM]" recorded_result=98.9

# input for lookup
Request: Emax, test system Integrin αvβ6 Receptor (Homo sapiens, UniProt P06756+P18564), entry Cc1ccnc(NCCCC(=O)N2CCN(C(CC(=O)O)c3ccc(-c4ccc(OCCOCCOCCOCCOCCn5cc(CNC(=O)c6ccc7c(c6)C(=O)OC76c7ccc(O)cc7Oc7cc(O)ccc76)nn5)c5ccccc45)cc3)CC2)c1 (stereo not shown) [Compound 4-5FAM]
100

* * *

Target: Integrin αvβ6 Receptor (Homo sapiens, UniProt P06756+P18564)
Assay: HTRF binding activity to integrin αvβ6 receptor (competition with LAP (TGF-beta 1))
Details: fit parameter of the inhibition curve
Experimental: Reagent Preparation: Assay buffer was prepared.
// reported Hillslope for each item listed
// return just the number, without any unit appended

Examples from the recorded data:
compound="CNc1cccc(CCCCC(=O)N[C@@H](CC(=O)O)c2ccc(-c3ccc(OCCOCCOCCOCCOCCn4cc(CNC(=O)c5ccc6c(c5)C(=O)OC65c6ccc(O)cc6Oc6cc(O)ccc65)nn4)c4ccccc34)cc2)n1 [Compound 7-5FAM]" recorded_result=1.2
compound="O=C(NCc1cn(CCOCCOCCOCCOCCOCCN(CCCCc2ccc3c(n2)NCCC3)CC[C@H](Nc2ncnc3ccccc23)C(=O)O)nn1)c1ccc2c(c1)C(=O)OC21c2ccc(O)cc2Oc2cc(O)ccc21 [Compound 16-5FAM]" recorded_result=1.4
compound="Cc1ccnc(NCCCC(=O)N2CCN(C(CC(=O)O)c3ccc(-c4ccc(OCCOCCOCCOCCOCCn5cc(CNC(=O)c6ccc7c(c6)C(=O)OC76c7ccc(O)cc7Oc7cc(O)ccc76)nn5)c5ccccc45)cc3)CC2)c1 (stereo not shown) [Compound 4-5FAM]" recorded_result=1.1

Fill in: Hillslope of CNc1cccc(CC(=O)NCC(=O)N[C@@H](CC(=O)O)c2ccc(-c3ccc(OCCOCCOCCOCCOCCn4cc(CNC(=O)c5ccc6c(c5)C(=O)OC65c6ccc(O)cc6Oc6cc(O)ccc65)nn4)c4ccccc34)cc2)n1 [Compound 6-5FAM] is ___
1.2

* * *

molecular target: Integrin αvβ6 Receptor (Homo sapiens, UniProt P06756+P18564); assay: HTRF binding activity to integrin αvβ6 receptor (competition with LAP (TGF-beta 1)); details: table of 5FAM-labelled compounds
// reported log10(IC50) for each item listed
Recorded IC50 (log10, nM)

compound="COCCN(CCCCc1ccc2c(n1)NCCC2)CC[C@H](Nc1ncnc2cc(OCCOCCOCCOCCOCCn3cc(CNC(=O)c4ccc5c(c4)C(=O)OC54c5ccc(O)cc5Oc5cc(O)ccc54)nn3)ccc12)C(=O)O [Compound 17-5FAM]" recorded_result=0.90

Fill in: log10(IC50) of CNc1cccc(CCCCC(=O)N[C@@H](CC(=O)O)c2ccc(-c3ccc(OCCOCCOCCOCCOCCn4cc(CNC(=O)c5ccc6c(c5)C(=O)OC65c6ccc(O)cc6Oc6cc(O)ccc65)nn4)c4ccccc34)cc2)n1 [Compound 7-5FAM] is ___
0.50

Fill in: log10(IC50) of COC(=O)C[C@H](NC(=O)CNC(=O)CCCN(C(=O)OC(C)(C)C)c1cc(C)ccn1)c1ccc(-c2ccc(OCCOCCOCCOCCOCCn3cc(CNC(=O)c4ccc5c(c4)C(=O)OC54c5ccc(O)cc5Oc5cc(O)ccc54)nn3)c3ccccc23)cc1 [Compound 1NG-5FAM] is ___
1.62

Fill in: log10(IC50) of CNc1cccc(CC(=O)NCC(=O)N[C@@H](CC(=O)O)c2ccc(-c3ccc(OCCOCCOCCOCCOCCn4cc(CNC(=O)c5ccc6c(c5)C(=O)OC65c6ccc(O)cc6Oc6cc(O)ccc65)nn4)c4ccccc34)cc2)n1 [Compound 6-5FAM] is ___
0.20

Fill in: log10(IC50) of Cc1ccnc(NCCCC(=O)NCC(=O)N[C@@H](CC(=O)O)c2ccc(-c3ccc(OCCOCCOCCOCCOCCn4cc(CNC(=O)c5ccc6c(c5)C(=O)OC65c6ccc(O)cc6Oc6cc(O)ccc65)nn4)c4ccccc34)cc2)c1 [Compound 1-5FAM] is ___
0.15

Fill in: log10(IC50) of O=C(NCc1cn(CCOCCOCCOCCOCCOCCN(CCCCc2ccc3c(n2)NCCC3)CC[C@H](Nc2ncnc3ccccc23)C(=O)O)nn1)c1ccc2c(c1)C(=O)OC21c2ccc(O)cc2Oc2cc(O)ccc21 [Compound 16-5FAM] is ___
0.25

* * *

Target: Integrin αvβ6 Receptor (Homo sapiens, UniProt P06756+P18564)
Assay: HTRF binding activity to integrin αvβ6 receptor (competition with LAP (TGF-beta 1))
Details: Integrin αvβ6, HTRF; Table 3, several runs, each with Cilengitide and 1 as references; read-out: IC50
Description: Main Experimental Reagents and Consumables Inhibition rate and fit IC50 was calculated using Excel and XL-Fit respectively, formula as follows: Inhibition % = (Max−Signal)/(Max−Min)*100 [formula] Y = Bottom + (Top−Bottom)/(1+(IC50/X)[…]), [formula] Y and X represent %inhibition and compound concentration respectively
// reported pIC50 for each item listed
Remember the convention: pIC50 equals -log10 of concentration in molar.

Examples from the recorded data:
compound="Cc1nn(-c2cccc(C(CC(=O)O)CN3CC[C@@H](CCc4ccc5c(n4)NCCC5)C3)c2)c(C)c1OCCOCCOCCOCCOCCN=[N+]=[N-] (single isomer, unassigned) [Compound 14-P1]" recorded_result=8.03
compound="[N-]=[N+]=NCCOCCOCCOCCOCCOc1ccc([C@H](CC(=O)O)CN2CC[C@@H](CCc3ccc4c(n3)NCCC4)C2)cc1 (single isomer, unassigned) [Compound 20-P1]" recorded_result=8.43

Fill in: pIC50 of Cc1nn(-c2cccc(C(CC(=O)O)CN3CC[C@@H](CCc4ccc5c(n4)NCCC5)C3)c2)c(C)c1OCCOCCOCCOCCOCCN=[N+]=[N-] (single isomer, unassigned) [Compound 14-P2] is ___
8.46
